// provenance: patent US20250027068

Task for the reader: assign each of the following proteins its reported Enzyme Activity Endpoint Assay (purified): Fab′2.
Assay target: pooled human IgG
Record the value in ng/µL, omitting the unit from your answer.

Consider the protein PRT-691 (protein) MQITTVWTKGVTPPTPEQFRYNNEDVIHAPYLPNQGWYDITKTFNGKDNLLCGAATAGNMLHWWFDQNKTEIEAYLSKYPEKQKIIFNNQELFDLRAAINTKDSQTNSQLFNYFRDKAFPNLSARQLGVMPDLVLDMFINGYYLNVFKTQSTDVNRPYQDRDKRGGIFDAVFNRGDQTTLLTARHDLKNKTLNDISTLIKQELSSGKALALSHTYANVSISHVINLWGADFNAEGNLEAIYVTDSDANASIGMKKYYVGVNAHGKVAISAKKIEGENIGAQVLGLFTLSSGKDIWQKLSLEHHHHHH . State its measured Enzyme Activity Endpoint Assay (purified): Fab′2.
184

Consider the protein PRT-671 (protein) MQITTVWTKGVTPPTPEQFRNNNEDVFHAPYLPHQGWYDITKAFDGKDNLLCGAATAGNMLHWWFDQNKEEIEAYLKKYPEKQKIIFNNQELFDLRKAINTKDSQTNSQLFNYFRDKAFPNLSARQLGVMPDHVLDMFINGYYLNVFKTQSTDVNRPYQTRDKRGGIFDAVFNRGDQTTLLTERHDLYNKGLDDISTLIKQELSSGKALGLSHTYANVSISHVINLWGADFNAEGNLEAIYVTDSDDDASIGMKKYYVGKNASGHVRISAKKIEGENIGAQVLGLFTLSTGKDIWQKLSLEHHHHHH . State its measured Enzyme Activity Endpoint Assay (purified): Fab′2.
97

Consider the protein PRT-532 (protein) MANQEIRYSEETPKTITSIWTKGVTPPTDFIKNEDVLHAPYIANQGWYDITKTFNGKDDLLCGAATAGNMLHWWFDQNKEEIENYLKKHPEKQKINFNGEQMFDVKEAIDTKDSQTDSKLFEYFKDKAFPYLSTKHLGVMPDLVLDMFINGYYLSLGKHGPTPVKRGTKDPRGGIFDAVFTRGDQSKLLTARHDFKEKTLNEISDLIKQELTEGKALALSHTYANVRINHVINLWGADFNSEGNLEAIYVTDSDSNASIGMKKYYVGVNAAGKVAISAKEIEGDNIGAQVLGLFTLSTGQDIWNQTNLEHHHHHH . State its measured Enzyme Activity Endpoint Assay (purified): Fab′2.
409

Consider the protein PRT-640 (protein) MQITSVWTKGVTPLTPEQFRYNNEDVIHAPYLAHQGWYDITKTFNGKDNLLCGAATAGNMLHWWFDQNKTEIEAYLSKHPEKQKIIFNNQELFDLKAAIDTKDSQTNSQLFNYFRDKAFPNLSARQLGVMPDLVLDMFINGYYLNVFKTQSTDVNRPYQDKDKRGGIFDAVFTRGDQTTLLTARHDLKNKGLNDISTIIKQELTEGRALALSHTYANVSISHVINLWGADFNAEGNLEAIYVTDSDADEKIGMKKYFVGINAHGHVAISAKKIEGENIGAQVLGLFTLSSGKDIWQKLSLEHHHHHH . State its measured Enzyme Activity Endpoint Assay (purified): Fab′2.
951

Consider the protein PRT-67 (protein) MANQEIRYSEVTPYHVTSVWTKGVTPPANFTQGEDVFHAPYVANQGWYDINKTFNGKDDLLCGAATAGNMLHWWFDQNKDQIKRYLEEHPEKQKINFNGEQMFDVKEAIDTKNHQLDSKLFEYFKEKAFPYLSTKHLGVFPDHVIDMFINGYRLSLTNHGPTPVKEGSKDPRGGIFDAVFTRGDQSKLLTSRHDFKEKNLKEISDLIKKELTEGKALGLSHTYANVRINHVINLWGADFDSNGNLKAIYVTDSDSNASIGMKKYFVGVNSAGKVAISAKEIKEDNIGAQVLGLFTLSTGQDSWNQTN . State its measured Enzyme Activity Endpoint Assay (purified): Fab′2.
10

Consider the protein PRT-659 (protein) MQITSVWTKGVTPLTPEQFRYNNEDVIHAPYLAHQGWYDITKAFDGKDNLLCGAATAGNMLHWWFDQNKTEIEAYLSKHPEKQKIIFNNQELFDLREAINTKDDQKDSKLFNYFREKAFPNLSARQLGVMPDLVLDMFINGYYLNVFKTQSTDVNRPYQDKDKRGGIFDAVFTRGDQTTLLTARHDLKNKGLNDISTIIKQELTEGRALALSHTYANVSISHVINLWGADFNAEGNLEAIYVTDSDANASIGMKKYFVGINAHGHVAISAKKIEGENIGAQVLGLFTLSSGKDIWQKLSLEHHHHHH . State its measured Enzyme Activity Endpoint Assay (purified): Fab′2.
946

Consider the protein PRT-77 (protein) MANQEIRYSEVTPYHVTSVWTKGVTPPTNFTQGEDVFHAPYVANQGWYDITKTFNGKDNLLCGAATAGNMLHWWFDQNKEEIERYLKKHPEKQKIMFGDQELLDVRKVINTKDDQKNSELFNYFRDKAFPGLSARRLGVMPDLVLDMFINGYYLNVGKTQTTDVNRTYQEKDKRGGIFDAVFTRGDQSKLLTSRHDFKEKNLKEISDLIKQELTEGKALGLSHTYANVRINHVINLWGADFDSNGNLEAIYVTDSDSNASIGMKKYFVGVNSAGKVAISAKEIEEDNIGAQVLGLFTLSTGQDIWNQTN . State its measured Enzyme Activity Endpoint Assay (purified): Fab′2.
33

Consider the protein PRT-654 (protein) MQITSVWTKGVTPLTPEQFRYNNEDVIHAPYLAHQGWYDITKAFDGKDNLLCGAATAGNMLHWWFDQNKTEIEAYLSKHPEKQKIIFNNQELFDLKAAIDTKDSQTNSQLFNYFRDKAFPNLSARQLGVMPDLVLDMFINGYYLNVFKTQSTDVNRPYQDKDKRGGIFDAVFTRGDQTTLLTARHDLKNKGLNDISTIIKQELTEGRALALSHTTGNVSYSHVINLWGADFNAEGNLEAIYVTDSDANASIGMKKYFVGINAHGHVAISAKKIEGENVGAQVLGLFTLSSGKDIWQKLSLEHHHHHH . State its measured Enzyme Activity Endpoint Assay (purified): Fab′2.
401
